EXPERIMENTAL_PROTOCOL: RL-14 cell viability by MTT assay
Assay type: cell-based, human
EXPERIMENTAL_SETUP: human, RL-14 cardiomyocyte cells
MEASURED_QUANTITY: viability at 24 h, 10 µM (%)
Your answer is read as %, so omit the unit and give the number.

Give reported viability at 24 h, 10 µM value for COc1cccc2c1C(=O)c1c(O)c3c(c(O)c1C2=O)C[C@@](O)(C(=O)CO)C[C@@H]3O[C@H]1C[C@H](N)[C@H](O)[C@H](C)O1 [doxorubicin, Doxorubicin, reference compound]
52
